test system: Lambsquarters; experiment: Preemergence herbicidal activity, % control of plant growth; type: in vivo; details: Chenopodium album, pre-emergence, 504 h, 16 lb/acre, about 3 weeks
Measured pest or weed control at 17933.6 g/ha by item
READOUT: pest or weed control at 17933.6 g/ha

COMPOUND | STUDY TARGET | VALUE REPORTED
C=CCn1c(=O)[nH]c2cccnc2c1=O | Lambsquarters | 100%
O=c1[nH]c2nccnc2c(=O)n1C1CCCCCCC1 | Lambsquarters | 100%
CC(C)n1c(=O)[nH]c2cccnc2c1=O | Lambsquarters | 90%
O=c1[nH]c2cccnc2c(=O)n1C1CCCCC1 | Lambsquarters | 100%
CCC(C)n1c(=O)[nH]c2cccnc2c1=O (stereo not drawn) | Lambsquarters | 100%
O=c1[nH]c2cccnc2c(=O)n1C1CC1 | Lambsquarters | 100%
O=c1[nH]c2cccnc2c(=O)n1Cc1ccccc1 | Lambsquarters | 100%
CCCCn1c(=O)[nH]c2cccnc2c1=O | Lambsquarters | 70%
O=c1[nH]c2cccnc2c(=O)n1C1CCCCCCC1 | Lambsquarters | 100%
O=c1[nH]c2nccnc2c(=O)n1C1CCCCC1 | Lambsquarters | 100%
CCCCn1c(=O)[nH]c2nccnc2c1=O | Lambsquarters | 0%
CCCn1c(=O)[nH]c2cccnc2c1=O | Lambsquarters | 100%

----------
compounds and their reported pest or weed control at 8966.8 g/ha
tested on: Foxtail; assay: Postemergence herbicidal activity, % control of plant growth; type: in vivo; conditions: Setaria, post-emergence, 264 h, 8 lb/acre, about 11 days

COMPOUND | STUDY TARGET | pest or weed control at 8966.8 g/ha / %
CCCCC(CC)Cn1c(=O)[nH]c2cccnc2c1=O (centres unmarked) | Foxtail | 0
CCCCn1c(=O)[nH]c2cccnc2c1=O | Foxtail | 100
C=CCn1c(=O)[nH]c2cccnc2c1=O | Foxtail | 100
O=c1[nH]c2nccnc2c(=O)n1C1CCCCC1 | Foxtail | 10
CCC(C)n1c(=O)[nH]c2cccnc2c1=O (centres unmarked) | Foxtail | 100
CCCn1c(=O)[nH]c2cccnc2c1=O | Foxtail | 100
O=c1[nH]c(=O)c2ncccc2[nH]1 [pyrido[3,2-d]pyrimidine-2,4(1H,3H)-dione, reference compound] | Foxtail | 0
CCCCn1c(=O)[nH]c2nccnc2c1=O | Foxtail | 0
CC(C)n1c(=O)[nH]c2nccnc2c1=O | Foxtail | 0
O=c1[nH]c2nccnc2c(=O)n1C1CCCCCCC1 | Foxtail | 50
O=c1[nH]c2cccnc2c(=O)n1C1CC1 | Foxtail | 0

----------
tested on: Cucumber; assay: Postemergence herbicidal activity, % control of plant growth; assay type: in vivo; conditions: Cucumis sativus, post-emergence, 264 h, 8 lb/acre, about 11 days
# key: entry, value: pest or weed control at 8966.8 g/ha
READOUT: pest or weed control at 8966.8 g/ha (%)

STRUCTURE SMILES STRING | READOUT | UOM | VALUE REPORTED
CCCCn1c(=O)[nH]c2nccnc2c1=O | pest or weed control at 8966.8 g/ha | % | 0
O=c1[nH]c2cccnc2c(=O)n1C1CCCCC1 | pest or weed control at 8966.8 g/ha | % | 100
C=CCn1c(=O)[nH]c2cccnc2c1=O | pest or weed control at 8966.8 g/ha | % | 100
O=c1[nH]c2nccnc2c(=O)n1C1CCCCC1 | pest or weed control at 8966.8 g/ha | % | 100
O=c1[nH]c2cccnc2c(=O)n1Cc1ccccc1 | pest or weed control at 8966.8 g/ha | % | 10
CC(C)n1c(=O)[nH]c2cccnc2c1=O | pest or weed control at 8966.8 g/ha | % | 100

----------
tested on: Pigweed; test: Preemergence herbicidal activity, % control of plant growth; assay type: in vivo; conditions: Amaranthus retroflexus, pre-emergence, 504 h, 16 lb/acre, about 3 weeks
READOUT: pest or weed control at 17933.6 g/ha

COMPOUND | READOUT | VALUE REPORTED
O=c1[nH]c2cccnc2c(=O)n1Cc1ccccc1 | pest or weed control at 17933.6 g/ha | 100%
O=c1[nH]c2cccnc2c(=O)n1C1CC1 | pest or weed control at 17933.6 g/ha | 100%
CC(C)n1c(=O)[nH]c2nccnc2c1=O | pest or weed control at 17933.6 g/ha | 100%
CCCCC(CC)Cn1c(=O)[nH]c2cccnc2c1=O (centres unmarked) | pest or weed control at 17933.6 g/ha | 0%
CCC(C)n1c(=O)[nH]c2cccnc2c1=O (centres unmarked) | pest or weed control at 17933.6 g/ha | 100%
O=c1[nH]c2nccnc2c(=O)n1C1CCCCCCC1 | pest or weed control at 17933.6 g/ha | 100%
CCCn1c(=O)[nH]c2cccnc2c1=O | pest or weed control at 17933.6 g/ha | 100%
CCCCn1c(=O)[nH]c2nccnc2c1=O | pest or weed control at 17933.6 g/ha | 0%
CC(C)n1c(=O)[nH]c2cccnc2c1=O | pest or weed control at 17933.6 g/ha | 100%
O=c1[nH]c2cccnc2c(=O)n1C1CCCCC1 | pest or weed control at 17933.6 g/ha | 100%
O=c1[nH]c2nccnc2c(=O)n1C1CCCCC1 | pest or weed control at 17933.6 g/ha | 100%
CCC(C)n1c(=O)[nH]c2nccnc2c1=O (centres unmarked) | pest or weed control at 17933.6 g/ha | 100%
CCn1c(=O)[nH]c2cccnc2c1=O | pest or weed control at 17933.6 g/ha | 100%
O=c1[nH]c2cccnc2c(=O)n1C1CCCCCCC1 | pest or weed control at 17933.6 g/ha | 100%
CCCCn1c(=O)[nH]c2cccnc2c1=O | pest or weed control at 17933.6 g/ha | 100%
O=c1[nH]c(=O)c2ncccc2[nH]1 [pyrido[3,2-d]pyrimidine-2,4(1H,3H)-dione, reference compound] | pest or weed control at 17933.6 g/ha | 0%
C=CCn1c(=O)[nH]c2cccnc2c1=O | pest or weed control at 17933.6 g/ha | 100%
